Reference for the values: PubChem BioAssay (EPA / NIEHS)

procedure_summary: Tanguay_ZF_120hpf_MORT_legacy: (Legacy) Oregon State University Tanguay Lab 120 Hour Post-fertilization zebrafish Assay for Mortality (AID 2283633)
Calls of active or inactive are those of the source. The calls were made as follows: active = hit-call score of the fitted dose curve at least 0.9, where 1 is the maximum; inconclusive = response in the unintended direction; inactive = score below 0.9.
Classes used: true (active), false (inactive)

smiles_code	label_class
CCCCCCCCCCCCc1cccc(S(=O)(=O)O)c1	false
COc1ccccc1N	false
O=C(O)C1(c2ccc3c(c2)OC[C@H](Cc2ccc(-c4ccccc4)cc2)[C@H]3O)CCCC1	false
Clc1cccc(Cl)c1Cl	false
Oc1c(Cl)cc(Cl)cc1Cl	true
OCCN(CCO)CCO	false
CN(C)C(=S)S	false
Cc1cc(C)cc(C)c1	false
Oc1cc(Cl)c(Cl)cc1Cl	true
N#Cc1cccnc1	false
